Span reference
Molecular target: T1, human FAP (Homo sapiens, UniProt Q12884)
T1 sequence (Q12884 1-760): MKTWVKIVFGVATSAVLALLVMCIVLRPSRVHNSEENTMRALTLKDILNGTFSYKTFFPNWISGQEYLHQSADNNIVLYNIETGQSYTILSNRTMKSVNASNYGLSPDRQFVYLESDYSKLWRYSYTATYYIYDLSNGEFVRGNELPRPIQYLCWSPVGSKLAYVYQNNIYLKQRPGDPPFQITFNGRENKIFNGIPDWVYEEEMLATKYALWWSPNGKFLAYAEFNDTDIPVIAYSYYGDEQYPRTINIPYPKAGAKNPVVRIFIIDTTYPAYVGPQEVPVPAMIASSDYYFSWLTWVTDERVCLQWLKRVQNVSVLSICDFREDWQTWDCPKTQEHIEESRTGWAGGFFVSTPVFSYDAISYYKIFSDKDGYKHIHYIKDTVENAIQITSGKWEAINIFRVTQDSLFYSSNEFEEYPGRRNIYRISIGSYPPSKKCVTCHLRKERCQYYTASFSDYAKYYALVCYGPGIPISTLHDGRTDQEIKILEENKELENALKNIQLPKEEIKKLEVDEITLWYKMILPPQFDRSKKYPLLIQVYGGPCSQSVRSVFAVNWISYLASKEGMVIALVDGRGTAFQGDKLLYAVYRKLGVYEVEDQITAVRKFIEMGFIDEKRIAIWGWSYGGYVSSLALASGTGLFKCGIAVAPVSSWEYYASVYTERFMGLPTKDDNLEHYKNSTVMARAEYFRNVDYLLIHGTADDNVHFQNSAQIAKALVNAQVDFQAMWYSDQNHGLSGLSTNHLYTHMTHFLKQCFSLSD
Assay: BLI click reaction with Tz-R3B23 on TCO-VHHs bound to target, span (Example 7, Table 18)
Settings: Experiment 2, 1st assay, click reaction with 50 nM Tz-R3B23 for 30 minutes, signal difference vs assay buffer
Protocol: Next, Octet Streptavidin (SA) Biosensors were coated with 5 μg/mL biotinylated human FAP in assay buffer (HBS+0.5% BSA+0.1% Tween20) for 5 minutes. […] In the second experiment the TCO-VHHs were measured in duplicate (referred to as assay 1 and 2 of ‘experiment 2’ in the table below). Using the epitope binning function of ‘Octet Analysis Software’ we then determined the difference in signal between the VHHs incubated with Tz-R3B23 and the VHHs incubated with assay buffer. […]

- molecule: "TCO-VHH8 (conjugate, cyclised or stapled) VHH: QVQLQESGGGTVQPGGSLRLSCAASGISVSIASMAWYRQAPGKQRELVAGIISGGSTNYADSVKGRFTISRDNAKKVVLLQMNSLKPEDTAVYYCNTYPPFVGPGATATWGQGTQVTVSSAAAYPYDVPDYGSHHHHHH"
  Span: 0.0218
- molecule: "TCO-VHH1: VHH1, functionalized with transcyclooctene (TCO) (conjugate, cyclised or stapled) VHH: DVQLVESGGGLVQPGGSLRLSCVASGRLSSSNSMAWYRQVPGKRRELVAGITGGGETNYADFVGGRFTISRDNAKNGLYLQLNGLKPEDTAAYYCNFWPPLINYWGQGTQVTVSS"
  Span: 0.0334
